Reported koff is given for each of the following binders.
# SYSTEM: T1, extracellular domain of human BLyS protein (hBLyS-ECD), His-tagged, Ala134-Leu285 (human, UniProt Q9Y275 134-285)
# T1 construct: Expressed in HEK293 cells and purified on a Ni column; also called immunogen
# T1 sequence (Q9Y275 134-285): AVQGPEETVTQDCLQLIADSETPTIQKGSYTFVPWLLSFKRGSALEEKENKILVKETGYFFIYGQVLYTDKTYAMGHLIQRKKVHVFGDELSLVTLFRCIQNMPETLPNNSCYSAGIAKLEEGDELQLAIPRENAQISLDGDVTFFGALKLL
# ASSAY_EXPLANATION: SPR (Biacore), antibody captured by anti-human Fc, hBLyS-ECD as analyte
API: value field is a number in s⁻¹; no unit string.

# koff of c97A3C2H4 (antibody, V domains shown, also called chimeric antibody c97A3C2H4) VH: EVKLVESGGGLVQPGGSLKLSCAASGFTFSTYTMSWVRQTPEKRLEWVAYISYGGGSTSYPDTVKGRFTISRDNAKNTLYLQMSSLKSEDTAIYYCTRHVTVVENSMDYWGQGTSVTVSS VL: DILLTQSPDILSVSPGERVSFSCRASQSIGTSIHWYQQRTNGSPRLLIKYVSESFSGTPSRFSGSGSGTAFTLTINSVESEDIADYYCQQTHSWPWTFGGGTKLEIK = 0.000179

# koff of h97A3C2H4-9 (antibody, V domains shown, Humanized antibody; VH3-7/JH6 CDR-grafted with A93T, G44R; also called humanized BLyS antibody h97A3C2H4 variant 9 (VH.1b / Vk.1d)) VH: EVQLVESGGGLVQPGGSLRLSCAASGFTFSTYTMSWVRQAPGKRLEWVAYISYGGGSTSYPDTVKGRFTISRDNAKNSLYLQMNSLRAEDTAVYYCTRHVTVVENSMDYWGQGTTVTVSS VL: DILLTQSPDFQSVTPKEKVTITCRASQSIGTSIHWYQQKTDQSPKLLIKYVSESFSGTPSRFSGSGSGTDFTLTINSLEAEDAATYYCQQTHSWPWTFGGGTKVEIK = 0.000216

# koff of c8E7D9C7F5 (antibody, V domains shown, also called chimeric antibody c8E7D9C7F5) VH: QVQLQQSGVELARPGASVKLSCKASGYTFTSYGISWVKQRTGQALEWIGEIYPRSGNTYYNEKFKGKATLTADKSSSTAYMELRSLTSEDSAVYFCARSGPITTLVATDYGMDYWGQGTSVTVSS VL: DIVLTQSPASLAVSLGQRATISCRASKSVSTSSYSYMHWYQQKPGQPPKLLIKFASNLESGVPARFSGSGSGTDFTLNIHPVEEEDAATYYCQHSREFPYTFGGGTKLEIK = 0.000714
